- procedure details: Metabolic stability in human liver s9 fraction measured at 60 mins
- Assay type: ADME, subcellular
- experimental parameters: read-out: Stability
List of remaining at 1 h values.
metric: remaining at 1 h (%)

- compound: "Cc1cc(-c2cnn(CCO)c2)c2c(c1)C(O)(C(F)(F)F)c1ccccc1-2 (centres undefined)"
  metric: "remaining at 1 h"
  result value: 83
- compound: "Nc1nc(SCC(=O)c2ccccc2)nc2sc3c(c12)CCN(Cc1ccccc1)C3"
  metric: "remaining at 1 h"
  result value: 6
- compound: "O=C(O)CCCOc1ccc2c(c1)C(O)(C(F)(F)F)c1ccccc1-2 (racemic)"
  metric: "remaining at 1 h"
  result value: 92
- compound: "OCCn1cc(-c2cccc3c2-c2ccccc2C3(O)C(F)(F)F)cn1 (racemic)"
  metric: "remaining at 1 h"
  result value: 94
- compound: "O=C(c1ccc2c(c1)C(O)(C(F)(F)F)c1ccccc1-2)N1CCC1 (racemic)"
  metric: "remaining at 1 h"
  result value: 49
- compound: "Cn1cc(-c2cccc3c2-c2ccccc2C3(O)C(F)(F)F)cn1 (racemic)"
  metric: "remaining at 1 h"
  result value: 62
- compound: "O=C1CCCN1c1ccc2c(c1)C(O)(C(F)(F)F)c1ccccc1-2 (racemic)"
  metric: "remaining at 1 h"
  result value: 29
- compound: "CNC(=O)Cn1cc(-c2cccc3c2-c2ccccc2C3(O)C(F)(F)F)cn1 (racemic)"
  metric: "remaining at 1 h"
  result value: 93
- compound: "Cn1cc(-c2cc(OCCCC(=O)O)cc3c2-c2ccccc2C3(O)C(F)(F)F)cn1 (centres undefined)"
  metric: "remaining at 1 h"
  result value: 91

====

- procedure details: AUC in Sprague-Dawley rat at 10 mg/kg, po measured for 25 hrs by LC-MS/MS analysis
- Format: ADME, organism-based
- experimental parameters: in vivo

- compound: "Cc1cc(-c2cnn(CCO)c2)c2c(c1)C(O)(C(F)(F)F)c1ccccc1-2 (stereo unspecified)"
  measure unit: "µM·h"
  AUC at 25 h: 57

====

- measured on: [Pyruvate dehydrogenase (acetyl-transferring)] kinase isozyme 2, mitochondrial (Homo sapiens)
- procedure details: Inhibition of human recombinant PDHK2 assessed as residual PDH activity in presence of ATP using sodium pyruvate/Coenzyme A/thiamine pyrophosphate as substrates incubated for 90 mins by UV-transparent microplate analysis

- molecule: "Cc1cc(-c2cnn(CCO)c2)c2c(c1)C(O)(C(F)(F)F)c1ccccc1-2 (centres undefined)"
  IC50 [nM]: 17
- molecule: "O=C(c1ccc2c(c1)C(O)(C(F)(F)F)c1ccccc1-2)N1CCC1 (racemic)"
  IC50 [nM]: 170
- molecule: "Cn1cc(-c2cc(OCCCC(=O)O)cc3c2-c2ccccc2C3(O)C(F)(F)F)cn1 (centres undefined)"
  IC50 [nM]: 20
- molecule: "OCCn1cc(-c2cc(F)cc3c2-c2ccccc2C3(O)C(F)(F)F)cn1 (centres undefined)"
  IC50 [nM]: 20
- molecule: "Nc1nc(SCC(=O)c2ccccc2)nc2sc3c(c12)CCN(Cc1ccccc1)C3"
  IC50 [nM]: 1900
- molecule: "COC(=O)c1ccc2c(c1)C(O)(C(F)(F)F)c1ccccc1-2 (racemic)"
  IC50 [nM]: 600
- molecule: "OC1(C(F)(F)F)c2ccccc2-c2ccccc21"
  IC50 [nM]: 5900
- molecule: "CC(C)C1(O)c2ccccc2-c2ncccc21 (racemic)"
  IC50 [nM]: 12000
- molecule: "COC(=O)c1cccc2c1-c1ccccc1C2(O)C(F)(F)F (racemic)"
  IC50 [nM]: 900

====

List of remaining at 1 h values.
- procedure details: Metabolic stability in human liver s9 fraction measured at 60 mins
- Type: ADME, subcellular
- experimental parameters: read-out: Stability

- compound: "O=C(c1cc(-c2cnn(CCO)c2)c2c(c1)C(O)(C(F)(F)F)c1ccccc1-2)N1CCC1 (racemic)"
  remaining at 1 h: "94%"
- compound: "OCCn1cc(-c2cc(F)cc3c2-c2ccccc2C3(O)C(F)(F)F)cn1 (configuration not stated)"
  remaining at 1 h: "97%"
- compound: "CC(C)(C)Cn1cc(-c2cccc3c2-c2ccccc2C3(O)C(F)(F)F)cn1 (racemic)"
  remaining at 1 h: "84%"
- compound: "CC(C)C1(O)c2ccccc2-c2ncccc21 (racemic)"
  remaining at 1 h: "97%"
- compound: "OC1(C(F)(F)F)c2ccccc2-c2c(-c3cnco3)cccc21 (racemic)"
  remaining at 1 h: "61%"
- compound: "OC1(C(F)(F)F)c2ccccc2-c2c(-c3cccnc3)cccc21 (racemic)"
  remaining at 1 h: "80%"
- compound: "OC1(C(F)(F)F)c2ccccc2-c2c(-c3cncnc3)cccc21 (racemic)"
  remaining at 1 h: "96%"

====

- procedure details: MRT in Sprague-Dawley rat at 1 mg/kg, iv measured for 25 hrs by LC-MS/MS analysis
- Type: ADME, organism-based
- experimental parameters: in vivo

- molecule: "Cc1cc(-c2cnn(CCO)c2)c2c(c1)C(O)(C(F)(F)F)c1ccccc1-2 (stereo unspecified)"
  MRT, h: 3.9
